biological target: full-length B-Catenin (Uniprot ID P35222) (Homo sapiens, UniProt P35222); construct: 65 nM full-length B-Catenin (Uniprot ID P35222); experiment: Alphascreen binding assay (beta-catenin / biotin-TCF4 10-53)
compounds and their reported pEC50
Scale note: pEC50 = -log10(concentration in M).

Guide cases for pEC50, answers given:
{"Compound": "CC(=O)N1CCC[C@]12CC=CCCCC1(CCCC=CCCCCCC[C@@](C)(C(=O)N[C@@H](Cc3ccccc3)C(=O)N[C@@H](Cc3c[nH]c4ccccc34)C(=O)N[C@@H](C)C(N)=O)NC(=O)[C@H](C)NC(=O)[C@H](Cc3ccccc3)NC(=O)[C@H](C)NC(=O)[C@H](C)NC(=O)[C@H](CCC(=O)O)NC(=O)[C@H](CC(=O)O)NC1=O)NC(=O)[C@H](C)NC(=O)[C@H](CC(=O)O)NC2=O (some centres unmarked)", "pEC50": 6.29}
{"Compound": "CC(=O)N1CCC[C@]12CC=CCCCC1(CCCC=CCCCCCC[C@@](C)(C(=O)N[C@@H](Cc3ccccc3)C(=O)N[C@@H](Cc3c[nH]c4ccccc34)C(=O)NC(C)(C)C(N)=O)NC(=O)[C@H](C(C)C)NC(=O)[C@H](Cc3ccccc3)NC(=O)[C@H](C)NC(=O)[C@H](C)NC(=O)[C@H](CCC(=O)O)NC(=O)[C@H](CC(=O)O)NC1=O)NC(=O)[C@H](C)NC(=O)[C@H](CC(=O)O)NC2=O (some centres unmarked) [I-134]", "pEC50": 7.00}
{"Compound": "CC(=O)N1CCC[C@]12CC=CCCCC1(CCCC=CCCCCCC[C@@](C)(C(=O)N[C@@H](Cc3ccccc3)C(=O)N[C@@H](CC3CNc4ccccc43)C(=O)N[C@@H](CCC(N)=O)C(N)=O)NC(=O)[C@H](C(C)C)NC(=O)[C@H](Cc3ccccc3)NC(=O)[C@H](C)NC(=O)[C@H](C)NC(=O)[C@H](CCC(=O)O)NC(=O)[C@H](CC(=O)O)NC1=O)NC(=O)[C@H](C)NC(=O)[C@H](CC(=O)O)NC2=O (some centres unmarked) [I-168]", "pEC50": 5.25}
{"Compound": "CC(=O)N1CCC[C@]12CC=CCCCC1(CCCC=CCCCCCC[C@@](C)(C(=O)N[C@@H](Cc3cccc(C(F)(F)F)c3)C(=O)N[C@@H](Cc3c[nH]c4ccccc34)C(=O)N[C@@H](CCC(N)=O)C(N)=O)NC(=O)[C@H](C(C)C)NC(=O)[C@H](Cc3ccccc3)NC(=O)[C@H](C)NC(=O)[C@H](C)NC(=O)[C@H](CC(=O)O)NC(=O)[C@H](CC(=O)O)NC1=O)NC(=O)[C@H](C)NC(=O)[C@H](CC(=O)O)NC2=O (some centres unmarked) [I-249]", "pEC50": 5.55}

Proceeding to the next compound to report its pEC50.
Sure, the documented pEC50 for CC(=O)N[C@@H](Cc1ccccc1)C(=O)N[C@@H](CC(=O)O)C(=O)N[C@@H](C)C(=O)N[C@]1(C)CCCCCCC=CCOC(=O)N2CC[C@@](C(=O)N[C@@H](Cc3ccccc3)C(=O)N[C@@H](Cc3c[nH]c4ccccc34)C(=O)N[C@@H](CCC(N)=O)C(N)=O)(C2)NC(=O)[C@H]([C@@H](C)O)NC(=O)[C@H](Cc2ccccc2)NC(=O)[C@H](C)NC(=O)[C@H](C)NC(=O)[C@H](CC(=O)O)NC(=O)[C@H](CC(=O)O)NC1=O [I-223] is 5.39

* * *

experiment: Solubility in PBS; type: physicochemical; settings: Solubility (uM)
Readout Name: solubility at 15 min (µM)
Response body: numeric value in µM, unit text excluded.

{"Compound": "CC(=O)N1CCC[C@]12CC=CCCCC1(CCCC=CCCCOC(=O)N3CC[C@@](C(=O)N[C@@H](Cc4ccsc4)C(=O)N[C@@H](Cc4csc5ccccc45)C(=O)N[C@@H](CCC(N)=O)C(N)=O)(C3)NC(=O)[C@H](CC(N)=O)NC(=O)[C@H](CC(=O)O)NC(=O)[C@H](C)NC(=O)[C@H](C)NC(=O)[C@H](CC(=O)O)NC(=O)[C@H](CC(=O)O)NC1=O)NC(=O)[C@H](CC(C)(C)C)NC(=O)[C@H](Cc1ccccc1)NC2=O (some centres unmarked)", "solubility at 15 min, µM": 45}

get_value(item= CC(=O)N1CCC[C@]12CC=CCCCC1(CCCC=CCCCCCC[C@@](C)(C(=O)N[C@@H](Cc3ccccc3)C(=O)N[C@@H](Cc3csc4ccccc34)C(=O)NC(Cc3cncn3C)C(N)=O)NC(=O)[C@H](CC(N)=O)NC(=O)[C@H](Cc3ccccc3)NC(=O)[C@H](C)NC(=O)[C@H](C)NC(=O)[C@H](CCC(=O)O)NC(=O)[C@H](CC(=O)O)NC1=O)NC(=O)[C@H](C)NC(=O)[C@H](CC(=O)O)NC2=O (single isomer, unassigned) , readout=solubility at 15 min) returns 36

* * *

Reported Solubility by item:
assay: Solubility in PBS; assay type: physicochemical
Just the number in µM, nothing appended.

Consider the worked cases shown below.
{"Compound": "C[C@@H]1NC(=O)[C@H](C)NC(=O)[C@H](CN(CC(=O)O)CC(F)(F)F)NC(=O)[C@H](Cc2ccsc2)NC(=O)C2(CCCC=CCCCOC(=O)N3CC[C@@](C(=O)N[C@@H](CC(=O)O)C(=O)N[C@@H](Cc4csc5ccccc45)C(=O)N[C@@H](CCC(N)=O)C(N)=O)(C3)NC(=O)[C@H](CC(N)=O)NC(=O)[C@H](Cc3ccccc3)NC1=O)CCCC=CC[C@]1(CCCN1C(=O)CN=[N+]=[N-])C(=O)N[C@@H](CC(=O)O)C(=O)N[C@@H](CC(C)(C)C)C(=O)N2 (some centres unmarked) [I-1057]", "Readout Name": "Solubility", "Quantitative Readout": 50}
{"Compound": "CC(=O)N1CCC[C@]12CC=CCCCC1(CCCC=CCCCCCC[C@@](C)(C(=O)N[C@@H](Cc3ccccc3)C(=O)N[C@@H](Cc3c[nH]c4ccccc34)C(=O)N[C@@H](CCC(N)=O)C(N)=O)NC(=O)[C@H](C(C)C)NC(=O)[C@H](Cc3ccccc3)NC(=O)[C@H](C)NC(=O)[C@H](C)NC(=O)[C@H](Cc3cccnc3)NC(=O)[C@H](CC(=O)O)NC1=O)NC(=O)[C@H](C)NC(=O)[C@H](CC(=O)O)NC2=O (some centres unmarked) [I-271]", "Readout Name": "Solubility", "Quantitative Readout": 10}
{"Compound": "CC(=O)N1CCC[C@]12CC=CCCCC1(CCCC=CCCCOC(=O)N3CC[C@@](C(=O)N[C@@H](Cc4ccccc4)C(=O)N[C@@H](Cc4csc5ccccc45)C(=O)N[C@@H](CCC(N)=O)C(N)=O)(C3)NC(=O)[C@H](CC(C)C)NC(=O)[C@H](Cc3ccccc3)NC(=O)[C@H](C)NC(=O)[C@H](CCCCNC(C)C)NC(=O)[C@H](CCC(N)=O)NC(=O)[C@H](CC(N)=O)NC1=O)NC(=O)[C@H](C)NC(=O)[C@H](CC(=O)O)NC2=O (some centres unmarked) [I-1379]", "Readout Name": "Solubility", "Quantitative Readout": 10}
{"Compound": "CC(=O)N1CCC[C@]12CC=CCCCC1(CCCC=CCCCCCC[C@@](C)(C(=O)N[C@@H](Cc3ccccc3)C(=O)N[C@@H](Cc3csc4ccccc34)C(=O)N[C@@H](Cc3c[nH]cn3)C(N)=O)NC(=O)[C@H]([C@@H](C)O)NC(=O)[C@H](Cc3ccccc3)NC(=O)[C@H](C)NC(=O)[C@H](C)NC(=O)[C@H](CCC(=O)O)NC(=O)[C@H](CC(=O)O)NC1=O)NC(=O)[C@H](CC(C)C)NC(=O)[C@H](CC(=O)O)NC2=O (some centres unmarked) [I-618]", "Readout Name": "Solubility", "Quantitative Readout": 10}

With those in mind, consider the next compound.
// sample CC[C@H](C)[C@@H]1NC(=O)[C@H](CC(=O)O)NC(=O)[C@]2(CC=CCCCC3(CCCC=CCCCCCC[C@@](C)(C(=O)N[C@@H](Cc4ccccc4)C(=O)N[C@@H](Cc4csc5ccccc45)C(=O)N[C@@H](CO)C(N)=O)NC(=O)[C@H](CCC(N)=O)NC(=O)[C@H](Cc4ccccc4)NC(=O)[C@H](C)NC(=O)[C@H](C)NC(=O)[C@H](CCC(=O)O)NC(=O)[C@H](CC(=O)O)NC3=O)NC1=O)CCCN2C(C)=O (some centres unmarked) [I-640] , its Solubility was 50

* * *

Molecular target: full-length beta-Catenin (Uniprot ID P35222) (Homo sapiens, UniProt P35222)
Construct: 10 nM full-length beta-Catenin (Uniprot ID P35222)
Sequence (P35222 1-781): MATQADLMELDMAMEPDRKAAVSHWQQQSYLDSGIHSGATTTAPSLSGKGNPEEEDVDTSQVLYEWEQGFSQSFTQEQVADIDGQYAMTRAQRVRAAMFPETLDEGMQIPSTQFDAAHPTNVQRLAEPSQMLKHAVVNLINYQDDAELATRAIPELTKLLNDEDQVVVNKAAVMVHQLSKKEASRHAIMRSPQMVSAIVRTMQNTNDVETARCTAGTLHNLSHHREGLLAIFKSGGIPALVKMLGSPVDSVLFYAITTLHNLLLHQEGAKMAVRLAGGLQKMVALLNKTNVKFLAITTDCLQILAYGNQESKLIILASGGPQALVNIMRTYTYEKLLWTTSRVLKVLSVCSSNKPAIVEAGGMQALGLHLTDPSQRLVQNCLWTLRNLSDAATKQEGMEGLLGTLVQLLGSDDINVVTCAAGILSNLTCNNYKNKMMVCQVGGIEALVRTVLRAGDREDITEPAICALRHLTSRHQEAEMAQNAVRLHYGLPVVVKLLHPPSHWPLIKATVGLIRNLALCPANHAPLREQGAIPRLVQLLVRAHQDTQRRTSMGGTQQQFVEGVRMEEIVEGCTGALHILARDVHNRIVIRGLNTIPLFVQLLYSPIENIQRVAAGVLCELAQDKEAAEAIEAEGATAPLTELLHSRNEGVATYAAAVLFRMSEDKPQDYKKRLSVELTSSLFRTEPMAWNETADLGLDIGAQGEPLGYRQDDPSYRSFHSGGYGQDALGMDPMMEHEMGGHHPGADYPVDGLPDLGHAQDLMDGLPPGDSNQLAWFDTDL
Experiment: Fluorescence polarization IC50 (beta-catenin / 5FAM-TCF4 10-53 competition)
Assay type: binding
Conditions: fluorescence polarization; read-out: beta-Catenin FP IC50
Readout Name: pIC50
// scale note: pIC50 = -log10(conc_M); give the bare number

{"Molecule": "CC(=O)N1CCC[C@]12CC=CCCCC1(CCCC=CCCCOC(=O)N3CC[C@@](C(=O)N[C@@H](Cc4ccsc4)C(=O)N[C@@H](Cc4csc5ccccc45)C(=O)N[C@@H](CCC(N)=O)C(N)=O)(C3)NC(=O)[C@H](CC(=O)N3CCN(C)CC3)NC(=O)[C@H](Cc3ccccc3)NC(=O)[C@H](C)NC(=O)[C@H](C)NC(=O)[C@H](CC(=O)O)NC(=O)[C@H](CC(=O)O)NC1=O)NC(=O)[C@H](CC(C)(C)C)NC(=O)[C@H](CC(=O)O)NC2=O (some centres unmarked)", "Target Entity": "full-length beta-Catenin (Uniprot ID P35222) (Homo sapiens, UniProt P35222)", "pIC50": 8.22}

// next entry
Please fill in: pIC50 reported for CC(=O)N1CCC[C@]12CC=CCCCC1(CCCC=CCCCOC(=O)N3CC[C@@](C(=O)N[C@@H](CC4CCCC4)C(=O)N[C@@H](Cc4csc5ccccc45)C(=O)N[C@@H](CO)C(N)=O)(C3)NC(=O)[C@H](CC(C)C)NC(=O)[C@H](Cc3ccccc3)NC(=O)[C@H](C)NC(=O)[C@H](C)NC(=O)[C@H](Cc3cccc(C(=O)O)c3)NC(=O)[C@H](CC(=O)O)NC1=O)NC(=O)[C@H](CC(C)(C)C)NC(=O)[C@H](CC(=O)O)NC2=O (some centres unmarked) = 7.12
